# Test system: SK-MEL-28 melanoma
# Test Protocol: NCI tumour cell line growth inhibition, 48 h
The molecules listed here are annotated with their TGI.
Quantity Kind: TGI (µM)

1) CCOc1ccc(N/C(=C(/C(Cl)=C(/Cl)Nc2ccccc2)[N+](=O)[O-])n2nnc3ccccc32)cc1 :: 54.5
2) CC12OOC(c3ccccc31)c1c2ccc2ccccc12 (configuration not stated) :: 27
3) CO/C=C/C(=O)c1cc2cnc3c(=N)cc(NC(=O)C(C)C)c([nH]1)c23 :: 0.509

* * *

# System: SW-620 colon
# Test Protocol: NCI tumour cell line growth inhibition, 48 h; in the data active means GI50 below about 0.43 µM; inactive means the rest
Outcomes: active, inactive

1. COC1=CC(c2ccc[nH]2)=N/C1=C\c1[nH]c(C)c(CC(=O)OCc2ccccc2)c1CCC(=O)OCc1ccccc1 :: active
2. C=C(C)[C@@H]1CC[C@]2(COCCC#N)CC[C@]3(C)[C@H](CC[C@@H]4[C@@](C)(CCCNCCC#N)[C@H](C(=C)C)CC[C@]43C)[C@@H]12 :: inactive
3. Cc1cc(=O)[nH]c(N/N=C/c2cc(Br)ccc2O)n1 :: inactive
4. COC1C(CO)OC(n2c3ccccc3c3c4c(c5c6ccccc6[nH]c5c32)C(=O)NC4=O)C(O)C1O (centres undefined) :: active
5. Cc1cccc(-c2[nH]ncc2-c2ccc3ncccc3n2)n1 :: inactive
6. COc1cccc(CCC2CCCN(c3cc(C)nc(N)n3)C2)c1 (centres undefined) :: active
7. CCOC(=O)[C@@H](C)C[C@H](Cc1ccccc1)NC(=O)c1nc([C@@H](C[C@H](C(C)C)N(C)C(=O)[C@@H](NC(=O)[C@H]2CCCCN2C)C(C)C)OC(C)=O)sc1CCOCc1ccccc1 :: active
8. COc1ccc(N=Cc2c(O)ccc3c2oc2cc(Cl)c(O)c(Cl)c23)cc1 :: inactive
9. O=C1CC[C@H](N2C(=O)c3cccc4c(Cc5ccc(CN6CCOCC6)cc5)ccc2c34)C(=O)N1 :: inactive

The origin of these recorded values is PubChem BioAssay (NCI).
